Tested on: Proteus vulgaris KY4277 ATCC6897
ASSAY_TEXT: MIC, agar dilution method, pH 8.0
Format: cell-based
TEST_SETTINGS: ATCC6897; pH 8.0; Proteus vulgaris KY4277; read-out: Minimum inhibition concentration (MIC), PV
Form field: MIC (one value per entry).
ASSAY_READOUT: MIC (µg/mL)

• CO[C@H]1[C@@H](O)[C@H](N)[C@@H](O[C@H]2O[C@H]([C@H](C)N)CC[C@H]2N)[C@H](O)[C@@H]1N(C)C(=O)CN [Compound 2, 4-N-glycylfortimicin B, reference compound] = 0.32
• CO[C@H]1[C@@H](O)[C@H](N)[C@@H](O[C@H]2O[C@H]([C@H](C)N)CC[C@H]2N)[C@H](O)[C@@H]1N(C)CCNCCN = 5
• CNCC[C@H](O)CN(C)[C@H]1[C@@H](O)[C@H](O[C@H]2O[C@H]([C@H](C)N)CC[C@H]2N)[C@@H](N)[C@H](O)[C@@H]1OC = 0.32
• CNC[C@H](O)CN(C)[C@H]1[C@@H](O)[C@H](O[C@H]2O[C@H]([C@H](C)N)CC[C@H]2N)[C@@H](N)[C@H](O)[C@@H]1OC = 2.5

The values you see were collected from patent US4220755A.
